- target: T1, Monomeric human CD48-mmH (human)
- T1 chain: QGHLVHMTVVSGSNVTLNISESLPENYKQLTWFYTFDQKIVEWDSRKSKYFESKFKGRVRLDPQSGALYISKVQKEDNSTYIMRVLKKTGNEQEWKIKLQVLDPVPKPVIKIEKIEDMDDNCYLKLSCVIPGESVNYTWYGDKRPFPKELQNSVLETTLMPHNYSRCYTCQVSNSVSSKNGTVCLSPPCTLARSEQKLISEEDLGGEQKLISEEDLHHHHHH
- protocol-summary: SPR (Biacore), antibody captured by anti-Fc, CD48 in solution, 37 C
readout-kind: pKd
Note: pKd values are expressed as the negative base-10 logarithm of concentration in M.

binder="H2M1709N (antibody, mouse IgG2, V domains shown, Human variable domains, mouse IgG2 Fc (H2M)) VH: QVQLVQSGAEVKKPGASVKVSCKVSGYTLTELSIHWVRQAPGKGLEWMGGFDPEDGETIYAQKFQGRVNMTEDTSTDTAYMELSSLRSDDTTVYFCASLLPYFDYWGQGTLVTVSS VL: EIVLTQSPGTLSLSPGERATLSCRASQSVSSSYLAWYQQKPGQAPRLLIYGASSRATGIPDRFSGSGSGTDFTLSISRLEPEDFAVYFCQQYGSSMYTFGQGTKLEIK" readout_kind=pKd numeric_readout=7.45

// next item, pKd requested
The value of pKd measured for the binder H2M1713N (antibody, mouse IgG2, V domains shown, Human variable domains, mouse IgG2 Fc (H2M)) VH: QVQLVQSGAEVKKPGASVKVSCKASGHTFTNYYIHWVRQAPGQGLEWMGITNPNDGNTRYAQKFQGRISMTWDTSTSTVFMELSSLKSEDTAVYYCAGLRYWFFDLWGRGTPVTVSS VL: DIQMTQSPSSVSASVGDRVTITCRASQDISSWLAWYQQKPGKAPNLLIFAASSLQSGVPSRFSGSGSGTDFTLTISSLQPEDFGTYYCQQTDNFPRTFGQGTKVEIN turned out to be 8.56
